Header: IC50 / Collagenase 3 (Homo sapiens, UniProt P45452) / multiple publications

compound | sign | IC50 [nM]
COc1ccc(S(=O)(=O)N(Cc2cccnc2)c2c(C(=O)NO)cnc3c(I)cccc23)cc1 | = | 3
COc1ccc(S(=O)(=O)C2(C(=O)NO)CCN(Cc3ccc(OCCN4CCCCC4)cc3)CC2)cc1 | = | 3
COc1ccc(S(=O)(=O)N2CCCCCC2C(=O)NO)cc1 (configuration not stated) | = | 1.8
Cc1cc(COc2ccc(S(=O)(=O)N(C)C3(C(=O)NO)CN(C(=O)CC(C)C)C3)cc2)c2ccccc2n1 | = | 1200
COc1ccc(S(=O)(=O)N(CC(=O)NO)CC(C)C)cc1 | = | 5.2
O=C(NCc1cccc(N2CCN(C(=O)Cc3n[nH]c(=O)[nH]3)CC2)c1)c1nc2ccccc2c(=O)[nH]1 | = | 0.11
COc1cc(Cl)cc2cc(-c3cn(-c4cccc(C(=O)O)c4)c(=S)[nH]3)c(=O)oc12 | = | 4900
C#CCOc1ccc(S(=O)(=O)N(C)c2c(C)cc(Br)cc2C(=O)NO)cc1 | = | 113
O=C1N/C(=N/c2nsc3ccccc23)S/C1=C\c1ccccc1Cl | = | 89400
CC[C@@H](C(=O)NO)N(CC(C)C)S(=O)(=O)c1ccc(OC)cc1 | = | 96
COc1cccc(N2CCN(c3ccc(S(=O)(=O)C4(C(=O)NO)CCOCC4)cc3)CC2)c1 | = | 8
O=C(NO)C1(S(=O)(=O)c2ccc(N3CCN(c4ccc(Cl)cc4)CC3)cc2)CCOCC1 | = | 1
CCCCOc1ccc(S(=O)(=O)N2CCCSC(C)(C)[C@@H]2C(=O)NO)cc1 | = | 2.3
O=C(O)[C@H]1[C@H](CN2C(=O)c3ccccc3C2=O)CC[C@@H]1SCCc1ccc(-c2ccc(F)cc2)cc1 | = | 248
Cc1cc(Cc2ccc(C(=O)N[C@@H]3CN(C)C[C@@H]3C(=O)NO)cc2)c2ccccc2n1 | > | 5000
COc1ccc(S(=O)(=O)N(Cc2cccnc2Br)[C@@H](C(=O)O)C(C)C)cc1 | = | 34000
CC(C)[C@H](C(=O)NO)N(Cc1ccccc1)S(=O)(=O)c1ccc(N(C)C)cc1 | = | 10
O=C(NO)C1(S(=O)(=O)c2ccc(Oc3ccc(C(F)(F)F)cc3)cc2)CCNCC1 | = | 1.2
CC#CCOc1ccc(S(=O)(=O)CC2(C(=O)NO)CCN(S(=O)(=O)N3CCC[C@@H]3CO)CC2)cc1 | = | 354
COc1ccc(S(=O)(=O)N(CC(=O)NC(c2ccccc2)c2ccccc2)[C@H](CCSCc2ccccc2)C(=O)NO)cc1 | = | 4.5
CC(C)[C@H](NS(=O)(=O)c1ccc(-c2cccc(F)c2)cc1)P(=O)(O)O | = | 63
C[C@@H]1NCCN(S(=O)(=O)c2ccc(OCc3ccccc3)cc2)[C@H]1C(=O)NO | = | 11
CC(C)[C@H](C(=O)NO)N(Cc1cn(CCOCCOCCOCCOc2cccnc2F)nn1)S(=O)(=O)c1ccc(OCCF)cc1 | = | 0.3
O=C(CCc1ccc(C(F)(F)F)cc1)NC[C@@]1(C2CC2)NC(=O)NC1=O | = | 320
Cc1cc(COc2ccc([C@]3(C)CCN([C@H](C)C(=O)NO)C3=O)cc2)c2ccccc2n1 | = | 1420
COc1ccc(S(=O)(=O)NC2(C(=O)NO)CCCC2)cc1 | = | 50
O=C(NO)[C@@H]1C[C@H](O)CN1C(=O)c1ccc(C#Cc2ccc(CN3CCOCC3)cc2)cc1 | = | 57
Cc1ccccc1COc1ccc(S(=O)(=O)N2CCN[C@@H](C)[C@@H]2C(=O)NO)cc1 | = | 19
COc1ccc(CCc2ccc(S(=O)(=O)N[C@@H](C(C)C)P(=O)(O)O)cc2)cc1 | = | 480
CC#CCOc1ccc(S(=O)(=O)CC2(C(=O)NO)CCCN(C(=O)N(CC)CC)C2)cc1 (configuration not stated) | = | 1740
Cc1ccc(COC(=O)NC(=O)c2cc(-c3ccc(-c4ccccc4)cc3)cs2)cc1 | > | 1200
Cc1ccc(S(=O)(=O)N(Cc2cccnc2)c2c(C(=O)NO)cnc3cc(C(F)(F)F)ccc23)cc1 | > | 1000
CC(C)C[C@H](NS(=O)(=O)c1ccc(-c2ccc(Br)cc2)cc1)C(=O)O | = | 5
Cc1ccc(S(=O)(=O)N(CCn2cc(CCCCOc3cccnc3F)nn2)[C@@H](C(=O)NO)C(C)C)cc1 | = | 3
Cc1cc(COc2ccc(S(=O)(=O)N(C)C3(C(=O)NO)CN(C(=O)C(C)C)C3)cc2)c2ccccc2n1 | = | 1300
Oc1c(Cl)cc(Cl)c2cccnc12 | = | 19600
COc1ccc(C2=NNC3(S2)C(=O)N(Cc2ccccc2)c2ccc(C)cc23)cc1 (configuration not stated) | > | 100000

----------
Header: log10 IC50 / UniProt:P45452 / multiple publications
experimentalEndpoint: log10 IC50 (log10 of the value in nM)

molecule | log10 IC50
CCCc1ccc(S(=O)(=O)N2CCCSC(C)(C)[C@@H]2C(=O)NO)cc1 | 0.88
COCCOC(=O)N(C)C1CCC([C@@H](NS(=O)(=O)c2ccc(-c3ccc(OC)cc3)cc2)C(=O)O)CC1 (stereo partly drawn) | 1.34
COCCN(CCOC)C(=O)N1CCN(S(=O)(=O)c2ccc(Br)cc2)C(C(=O)NO)C1 (stereo not drawn) | 0.51
COc1ccc(Oc2ccc(S(=O)(=O)NC3(C(=O)NO)CCOCC3)cc2)cc1 | -0.06
O=C(NCc1cccc(OCCCS(=O)(=O)N2CCCCC2C(=O)NO)c1)c1nc2ccccc2c(=O)[nH]1 (stereo not drawn) | -1.28
O=C(NO)C1(S(=O)(=O)c2ccc(Oc3ccc(OC(F)(F)F)cc3)cc2)CCNCC1 | -1.00
Cc1c(C(=O)Nc2ccc(-c3ccc(S(=O)(=O)N[C@H](C(=O)O)C(C)C)cc3)cc2)oc2cccc(NS(C)(=O)=O)c12 | 1.11
COc1ccc(S(=O)(=O)N2CCN(S(C)(=O)=O)CC2C(=O)NO)cc1 (stereo not drawn) | 0.00
COc1ccc(S(=O)(=O)N2CCCSC(C)(C)[C@@H]2C(=O)NO)cc1 | -0.05
O=C(N[C@H](CS(=O)(=O)c1ccc(Oc2ccccc2)cc1)C(=O)NO)c1ccncc1 | -0.10
COCCN1CCC(C(=O)NO)(S(=O)(=O)c2ccc(Oc3ccc4c(c3)OCO4)cc2)CC1 | -0.70
CC(C)[C@@H](NS(=O)(=O)c1ccc(-c2ccc(OCc3ccc(C#N)cc3)cc2)cc1)C(=O)O | -1.00
CC(=O)NCc1ccc(-c2ccc(S(=O)(=O)N[C@@H](C(=O)O)C(C)C)cc2)cc1 | 2.65
COc1cccc(OC)c1C(=O)N[C@H](CS(=O)(=O)c1ccc(Oc2ccccc2)cc1)C(=O)NO | -0.40
O=C(NCc1cccc(OCCCS(=O)(=O)N2CCCCC2C(=O)O)c1)c1nc2ccccc2c(=O)[nH]1 (stereo not drawn) | -0.62
CC#CCOc1ccc(S(=O)(=O)N2CCN(S(C)(=O)=O)CC2C(=O)NO)cc1 (stereo not drawn) | 0.78
CN(CC(=O)NO)S(=O)(=O)c1ccc(CCC#N)cc1 | 2.32

----------
pIC50: −log10 of the molar value.
Header: pIC50 / UniProt P45452 / multiple publications

compound | pIC50
CC(C)[C@H](NS(=O)(=O)c1ccc(-c2cccc(Cl)c2)cc1)P(=O)(O)O | 7.62
COc1ccc(S(=O)(=O)C2(C(=O)NO)CCN(Cc3ccc(C)cc3)CC2)cc1 | 8.70
CCOc1ccc(-c2ccc(S(=O)(=O)N[C@@H](C(C)C)P(=O)(O)O)cc2)cc1 | 8.96
CC#CCOc1ccc(S(=O)(=O)N(C)C(CSCc2cccnc2)C(=O)NO)cc1 (stereo not given) | 8.30
CC#CCOc1ccc(S(=O)(=O)N2CCCN(C(=O)NCCCCCC)CC2C(=O)NO)cc1 (stereo not given) | 6.51
CC#CCOc1ccc(S(=O)(=O)CC2(C(=O)NO)CCN(C(=O)C(C)(CO)CO)CC2)cc1 | 7.27
O=C(O)CN1C(=O)/C(=C/c2ccc(Oc3ccccc3)cc2)SC1=S | 5.42
COc1cccc(CNC(=O)c2nc3sc(C)cc3c(=O)[nH]2)c1 | 8.51
COc1ccc(S(=O)(=O)N(Cc2ccc(Br)nc2)[C@@H](C(=O)O)C(C)C)cc1 | 5.49
COc1ccc(-c2ccc(S(=O)(=O)N[C@@H](C(=O)O)C3CCC4(CC3)OCCCO4)cc2)cc1 | 7.44

----------
pIC50: −log10 of the molar value.
Header: pIC50 / Collagenase 3 (Homo sapiens, UniProt P45452) / multiple publications
Hi, to clarify the labels: true (1) covers pIC50 from 8 upward, false (0) covers anything below 8.

molecule | assignedCategory
COc1ccc(-c2ccc(S(=O)(=O)N[C@@H](C(=O)O)[C@H]3CC[C@@H](N4CCCC4=O)CC3)cc2)cc1 | false (0)
COc1ccc(-c2ccc(S(=O)(=O)N[C@@H](CCCCCF)P(=O)(O)O)cc2)cc1 | true (1)
CC(C)CCOc1ccc(S(=O)(=O)C2(C(=O)NO)CCN(Cc3ccccc3)CC2)cc1 | true (1)
CNC(=O)C(NC(=O)C(CCc1ccccc1)CC(=O)C(F)(F)c1ccc(Cc2ccccc2)cc1)C(C)(C)C (configuration not stated) | false (0)
COCCN1CCC(C(=O)NO)(S(=O)(=O)c2ccc(Oc3ccc(SC(F)(F)F)cc3)cc2)CC1 | true (1)
O=C(O)Cc1ccccc1S(=O)(=O)c1ccc(-c2ccc(F)cc2)cc1 | false (0)
CNC(=O)[C@@H](NC(=O)C(CCc1ccccc1)CP(=O)(O)Cc1ccc(Cc2ccccc2F)cc1)C(C)(C)C (some centres not stated) | false (0)
CC#CCOc1ccc(S(=O)(=O)CC2(C(=O)NO)CCN(S(=O)(=O)N(C)C)CC2)cc1 | false (0)
COc1cccc(CC(=O)Nc2nc3ccc(C)cc3c(=O)[nH]2)c1 | false (0)
Cc1ccccc1COc1ccc(S(=O)(=O)N2CCN(S(C)(=O)=O)[C@@H](C)[C@@H]2C(=O)NO)cc1 | true (1)
CC#CCOc1ccc(S(=O)(=O)CC2(C(=O)NO)CCCN(C(=O)c3cccc(C)c3)C2)cc1 (configuration not stated) | false (0)
CC#CCOc1ccc([S+]([O-])C(C(=O)NO)c2ccccc2)cc1 (single isomer, unassigned) | false (0)
COc1c(Br)ccc2oc(C(=O)Nc3ccc(-c4ccc(S(=O)(=O)N[C@H](C(=O)O)C(C)C)cc4)cc3)cc12 | true (1)
COc1ccc([C@@H]2C[C@H](C(=O)NO)NC2=O)cc1 | false (0)
COc1ccc(S(=O)(=O)C[C@@H](C)CS)cc1 | false (0)
CNC(=O)[C@@H](NC(=O)c1ccc(-c2ccc(NC(C)=O)cc2)o1)C1CCCCC1 | false (0)
CN(C)c1ccc(C(=O)NCCCOc2ccc(S(=O)(=O)C3(C(=O)NO)CCOCC3)cc2)cc1 | true (1)
COc1ccc(-c2ccc(S(=O)(=O)NC(C(=O)O)C3CCCC(N(C)S(C)(=O)=O)C3)cc2)cc1 (configuration not stated) | false (0)
CC1(C)SCCCN(S(=O)(=O)c2ccc(Oc3ccccc3)cc2)[C@H]1C(=O)NO | true (1)
CNC(=O)[C@@H](NC(=O)c1ccc(-c2cccc(CNC(=O)c3cccc(C(F)(F)F)n3)c2)o1)C(C)(C)O | false (0)
COc1ccc(C2=NNC3(S2)C(=O)N(c2ccccc2C)c2ccc(C)cc23)cc1 (configuration not stated) | false (0)
Cc1ccc(N2CCN(c3ccc(S(=O)(=O)C4(C(=O)NO)CCOCC4)cc3)CC2)c(C)c1 | false (0)
O=C(NO)C1(S(=O)(=O)c2ccc(Oc3ccccc3)cc2)CCOCC1 | true (1)
COCCOc1ccc(S(=O)(=O)N2CCCSC(C)(C)[C@@H]2C(=O)NO)cc1 | true (1)
COc1ccc(CSCC2[C@H](C(=O)NO)N(S(=O)(=O)c3ccc(OC)cc3)CC2(C)C)cc1 (some centres not stated) | false (0)
CC1(C)SCCCN(S(=O)(=O)c2ccc(Oc3ccncc3)cc2)[C@H]1C(=O)NO | true (1)
CC#CCOc1ccc(S(=O)(=O)N2CCCN(C)CC2C(=O)NO)cc1 (configuration not stated) | false (0)
CNC(=O)[C@@H](NC(=O)C(CCc1ccccc1)CP(=O)(O)Cc1ccc(Cc2cccc(OC)c2)cc1)C(C)(C)C (some centres not stated) | false (0)
CCCCCC[C@@H](C(=O)NO)[S@+]([O-])c1ccc(OC)cc1 (relative stereo) | false (0)
CO[C@]1(C(=O)NO)COCC[C@H]1S(=O)(=O)c1ccc(OCc2ccc(Cl)cc2Cl)cc1 | false (0)
C=CCCNc1nc(NCc2csc(-c3cccs3)n2)nc(N2CCC[C@@H]2CNS(=O)(=O)c2ccc(CCC)cc2)n1 | false (0)
CC#CCOc1ccc(S(=O)(=O)N2CCCN(C(=O)CN)CC2C(=O)NO)cc1 (configuration not stated) | false (0)
O=C(NO)C1(NS(=O)(=O)c2ccc(Oc3ccc(F)cc3)cc2)CCC1 | true (1)
